Where do the numbers come from? From patent US20250084056A1.

# System: Phospho-Rb (Ser807/811)
# method: Phospho-Retinoblastoma (pRB) Cellular Assay
# Type: cell-based
# condition-info: Homo sapiens, OVCAR-3; NIH OVCAR3 cells, 24 hours; concentration giving 50% response
assay-readout: IC50 (nM)

Worked cases, answers included:
Param request: IC50 | system Phospho-Rb (Ser807/811) | item COc1c(COC(=O)Nc2ccc(Oc3cccc(Cl)c3)cc2F)ccc2c1C(=O)N(C1CCC(=O)NC1=O)C2 (stereo not drawn)
428

Param request: IC50 | system Phospho-Rb (Ser807/811) | item COc1c(COC(=O)Nc2ccc(Oc3ccccc3Cl)cc2F)ccc2c1C(=O)N(C1CCC(=O)NC1=O)C2 (stereo not drawn)
106

Param request: IC50 | system Phospho-Rb (Ser807/811) | item COc1c(COC(=O)Nc2ccc(Oc3ccccc3C(F)(F)F)cc2Cl)ccc2c1C(=O)N(C1CCC(=O)NC1=O)C2 (stereo not drawn)
479

Param request: IC50 | system Phospho-Rb (Ser807/811) | item COc1c(COC(=O)Nc2ccc(Cc3cccc(F)c3)cc2)ccc2c1C(=O)N(C1CCC(=O)NC1=O)C2 (stereo not drawn)
149

a = COc1c(COC(=O)Nc2ccc(Oc3ccccc3C(F)F)cc2)ccc2c1C(=O)N(C1CCC(=O)NC1=O)C2 (stereo not drawn)
b = COc1c(COC(=O)Nc2ccc(Oc3cc(C)cc(C)c3)cc2)ccc2c1C(=O)N(C1CCC(=O)NC1=O)C2 (stereo not drawn)
Which has the smaller recorded IC50, a or b ? Please respond with the label that marks your chosen entry.
a
(a: 117 nM, b: 483 nM)
